The reader will find reported pIC50 values listed item by item below.
Target: BCL-2 (Homo sapiens (Human), UniProt P10415)
Sequence (P10415 whole entry): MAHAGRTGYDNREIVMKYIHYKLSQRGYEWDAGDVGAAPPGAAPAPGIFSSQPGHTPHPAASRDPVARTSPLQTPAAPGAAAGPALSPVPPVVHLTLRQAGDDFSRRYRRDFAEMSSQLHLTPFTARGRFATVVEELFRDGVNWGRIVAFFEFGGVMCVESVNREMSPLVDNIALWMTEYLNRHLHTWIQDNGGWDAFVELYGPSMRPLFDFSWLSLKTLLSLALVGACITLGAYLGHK
Assay: BCL-2 competition binding (fluorescence polarization) assay
Conditions: fluorescein-labeled BH3 peptide 15 nM, purified BCL-2 protein 30 nM, 3 hours incubation at room temperature; read-out: BCL2 IC50
Just so you know, pIC50 here is -log10 of the concentration in molar units; reply with that number alone.

Sample records with pIC50:
Cc1ncsc1-c1ccc(CNC(=O)[C@@H]2C[C@@H](O)CN2C(=O)[C@@H](NC(=O)CCOCCOCCOCCN2CCN(CCNc3ccc(S(=O)(=O)NC(=O)c4ccc(N5CCN(CC6=C(c7ccc(Cl)cc7)CC(C)(C)CC6)CC5)cc4N4CCCOc5nc6[nH]ccc6cc54)cc3[N+](=O)[O-])CC2)C(C)(C)C)cc1 [Example 54]: 9.22
Cc1ncsc1-c1ccc(CNC(=O)[C@@H]2C[C@@H](O)CN2C(=O)[C@@H](NC(=O)CCOCCOCCOCCOCCNc2ccc(S(=O)(=O)NC(=O)c3ccc(N4CCN(CC5=C(c6ccc(Cl)cc6)CC(C)(C)CC5)CC4)cc3N3CCCOc4nc5[nH]ccc5cc43)cc2[N+](=O)[O-])C(C)(C)C)cc1 [Example 57]: 9.30
CC1(C)CCC(CN2CCN(c3ccc(C(=O)NS(=O)(=O)c4ccc(NCCOCCOCCOCCOCCNc5cccc6c5C(=O)N(C5CCC(=O)NC5=O)C6=O)c([N+](=O)[O-])c4)c(N4CCCOc5nc6[nH]ccc6cc54)c3)CC2)=C(c2ccc(Cl)cc2)C1 (stereo not shown) [Example 51]: 9.05

Note: attention shifts to another entry.
q: Requested read-out pIC50, target or system BCL-2 (Homo sapiens (Human), UniProt P10415), entry O=C(NS(=O)(=O)c1ccc(NC[C@H]2COCCO2)c([N+](=O)[O-])c1)c1ccc(N2CCN(CC3=C(c4ccc(Cl)cc4)CCCC3)CC2)cc1N1CCCOc2nc3[nH]ccc3cc21 [Example 74]
a: 9.52

###

Recorded pIC50 by entry
Target: UniProt:P10415
Test: BCL-2 competition binding (fluorescence polarization) assay
Details: fluorescein-labeled BH3 peptide 15 nM, purified BCL-2 protein 30 nM, 3 hours incubation at room temperature; read-out: BCL2 IC50
Description: Biological Example 1: BCL-2 Competition Binding (Fluorescence Polarization) Assay The fluorescence-labeled 23 amino acid peptide BH3 was purchased from CalBiochem ([…]). […] The polarization degree (mP) value was determined by BioTek Synergy II with background subtraction after 3 hours of incubation at room temperature. IC50 was calculated using Prism software with sigmoidal dose-response curve fitting. […]
Counter-ions that a name gives are not always drawn.
Quick note: pIC50 means taking -log10 of the concentration in moles per liter.

Use the examples below as a reference point.
CNc1ccc2c(n1)OCCCN2c1cc(N2CCN(CC3=C(c4ccc(Cl)cc4)CC(C)(C)CC3)CC2)ccc1C(=O)NS(=O)(=O)c1ccc(NC[C@H]2COCCO2)c([N+](=O)[O-])c1 [Example 42, hydrochloride]: 8.39
Cc1ncsc1-c1ccc(CNC(=O)[C@@H]2C[C@@H](O)CN2C(=O)[C@@H](NC(=O)CCOCCOCCN2CCN(CCNc3ccc(S(=O)(=O)NC(=O)c4ccc(N5CCN(CC6=C(c7ccc(Cl)cc7)CC(C)(C)CC6)CC5)cc4N4CCCOc5nc6[nH]ccc6cc54)cc3[N+](=O)[O-])CC2)C(C)(C)C)cc1: 9.40

q: What is its pIC50 for UniProt:P10415? Entry: Cn1c(=O)c2nc3[nH]ccc3cc2n1-c1cc(N2CCN(CC3=C(c4ccc(Cl)cc4)CC(C)(C)CC3)CC2)ccc1C(=O)NS(=O)(=O)c1ccc(NC[C@H]2COCCO2)c([N+](=O)[O-])c1
a: 10.00
